- TARGET_DESC: T1, human TF ECD-His (hTF-his) (human, UniProt P13726 33-251)
- T1 construct: also called bio-hTF-his; human TF-His protein
- METHOD_SUMMARY: SPR Biacore T200, antibody on Protein A chip, TF-His as analyte, 1:1 model
Exercise: for every item that follows, state its recorded pKd.
Numbers only, as −log10 of the molar value.

Consider the following illustrative entries.
hu67-6 (antibody, human IgG1, kappa, V domains shown) VH: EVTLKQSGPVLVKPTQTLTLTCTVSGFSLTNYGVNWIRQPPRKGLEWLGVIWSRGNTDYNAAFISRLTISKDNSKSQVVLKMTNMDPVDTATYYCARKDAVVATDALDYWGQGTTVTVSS VL: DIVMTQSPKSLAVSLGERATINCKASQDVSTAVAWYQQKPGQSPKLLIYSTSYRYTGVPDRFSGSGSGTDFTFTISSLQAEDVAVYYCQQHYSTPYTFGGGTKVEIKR
7.66
hu67-4 (antibody, human IgG1, kappa, V domains shown) VH: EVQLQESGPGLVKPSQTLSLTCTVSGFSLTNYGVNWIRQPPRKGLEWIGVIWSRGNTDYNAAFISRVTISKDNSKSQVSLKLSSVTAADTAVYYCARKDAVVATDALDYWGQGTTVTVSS VL: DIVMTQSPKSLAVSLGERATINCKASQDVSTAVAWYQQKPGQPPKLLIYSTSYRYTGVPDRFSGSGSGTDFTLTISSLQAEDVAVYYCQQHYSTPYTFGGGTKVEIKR
7.72
hu67-9 (antibody, human IgG1, kappa, V domains shown) VH: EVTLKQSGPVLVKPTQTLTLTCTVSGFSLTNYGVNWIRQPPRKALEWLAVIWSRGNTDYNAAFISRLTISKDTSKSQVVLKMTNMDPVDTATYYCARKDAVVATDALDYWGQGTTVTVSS VL: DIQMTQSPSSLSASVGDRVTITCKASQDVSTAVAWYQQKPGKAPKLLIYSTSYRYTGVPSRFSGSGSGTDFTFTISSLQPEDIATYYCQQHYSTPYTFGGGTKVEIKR
7.79
hu67Y116 (antibody, human IgG1, kappa, V domains shown) VH: EVQLQESGPGLVKPSQTLSLTCTVSGFSLTNYGVNWIRQSPGKGLEWIGVIWSRGNTDYNAAFKSRVTISKDTSKNQVSLKLSSVTAADTAVYYCARKDAIVATDALDYWGQGTTVTVSS VL: DIQMTQSPSSLSASVGDRVTITCKASQDVQTAVAWYQQKPGKAPKLLIYSTHYRYTGVPSRFSGSGSGTDFTFTISSLQPEDIATYYCLQSYTLPFSFGGGTKVEIKR
7.40

Okay, now this binder:
Q: Please look up its pKd: hu67-8 (antibody, human IgG1, kappa, V domains shown) VH: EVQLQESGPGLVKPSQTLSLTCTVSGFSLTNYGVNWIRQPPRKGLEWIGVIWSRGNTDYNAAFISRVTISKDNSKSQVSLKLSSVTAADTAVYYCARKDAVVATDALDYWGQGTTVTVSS VL: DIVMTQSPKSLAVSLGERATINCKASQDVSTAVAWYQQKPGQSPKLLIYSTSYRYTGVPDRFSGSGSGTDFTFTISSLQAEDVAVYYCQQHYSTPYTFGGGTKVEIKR
Result: 7.77

Reference source: patent EP4703388A1
